system: σ1 receptor; assay: Sigma receptor binding, σ1 sites, [3H](+)-pentazocine competition in rat liver membrane homogenates; conditions: ratio of Ki σ2 to Ki σ1
assay-metric: Selectivity ratio (Ki σ2/σ1)

>>> print(df.to_string())
                                   compound       target                  assay_metric  sign_qualifier  test_result
0   O=C(c1ccc(F)cc1)C1CCN(Cc2ccc(Br)cc2)CC1  σ1 receptor  Selectivity ratio (Ki σ2/σ1)               >          610
1  OC(c1ccc(F)cc1)C1CCN(Cc2ccc(Br)cc2)CC1 (stereo not shown)  σ1 receptor  Selectivity ratio (Ki σ2/σ1)               >          164
2  OC(c1ccc(F)cc1)C1CCN(Cc2ccc(Cl)cc2)CC1 (stereo not shown)  σ1 receptor  Selectivity ratio (Ki σ2/σ1)               >          343
3  OC(c1ccc(F)cc1)C1CCN(Cc2ccc(F)cc2)CC1 (stereo not shown)  σ1 receptor  Selectivity ratio (Ki σ2/σ1)               >          606
4  Fc1ccc(C(NCc2cccc(Br)c2)C2CCN(Cc3ccc(Br)cc3)CC2)cc1 (stereo not shown)  σ1 receptor  Selectivity ratio (Ki σ2/σ1)               >          289
5   O=C(c1ccc(F)cc1)C1CCN(Cc2ccc(Cl)cc2)CC1  σ1 receptor  Selectivity ratio (Ki σ2/σ1)               =           93
6  Cc1ccc(CN2CCC(C(O)c3ccc(F)cc3)CC2)cc1 (stereo not shown)  σ1 receptor  Selectivity ratio (Ki σ2/σ1)               >          589
7    Cc1ccc(CN2CCC(C(=O)c3ccc(F)cc3)CC2)cc1  σ1 receptor  Selectivity ratio (Ki σ2/σ1)               =           13
8    O=C(c1ccc(F)cc1)C1CCN(Cc2ccc(F)cc2)CC1  σ1 receptor  Selectivity ratio (Ki σ2/σ1)               =           75
9  O=[N+]([O-])c1ccccc1CN1CCC(C(O)c2ccc(F)cc2)CC1 (stereo not shown)  σ1 receptor  Selectivity ratio (Ki σ2/σ1)               =            2

Recorded values, source paper PMC4994268.
